Data provenance is patent US20190127480A1.

# SYSTEM_TESTED: human CD3 on CD3-expressing cells (Jurkat, human T cells) (human, UniProt P07766 23-207; P04234 22-171)
# Sequence (P07766 23-207 limits assumed, chain 1 of 2): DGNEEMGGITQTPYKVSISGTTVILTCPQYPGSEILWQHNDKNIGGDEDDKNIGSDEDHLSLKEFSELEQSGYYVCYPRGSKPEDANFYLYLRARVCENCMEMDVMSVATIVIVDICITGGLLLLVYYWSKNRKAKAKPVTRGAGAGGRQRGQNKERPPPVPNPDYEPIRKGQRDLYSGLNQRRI
# Sequence (P04234 22-171 limits assumed, chain 2 of 2): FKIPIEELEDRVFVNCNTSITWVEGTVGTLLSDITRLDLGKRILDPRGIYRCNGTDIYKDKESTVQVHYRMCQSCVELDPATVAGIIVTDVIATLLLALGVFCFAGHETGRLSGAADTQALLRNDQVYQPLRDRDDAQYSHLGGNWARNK
# PROTOCOL: cell-based or functional assay
REPORTED_PROPERTY: T cell activation EC50

Query: Quote T cell activation EC50 reported for BSPSMA/CD3-800 (bispecific antibody, IgG4, V domains shown, modified (chimeric) IgG4 Fc domain; also called PSMA-VH-11810 x CD3-VH-G8) VH 1: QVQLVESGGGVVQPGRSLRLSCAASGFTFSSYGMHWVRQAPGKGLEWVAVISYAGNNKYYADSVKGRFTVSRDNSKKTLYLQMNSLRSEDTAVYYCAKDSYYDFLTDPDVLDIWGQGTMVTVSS VH 2: EVQLVESGGGLVQPGRSLRLSCAASGFTFDDYSMHWVRQAPGKGLEWVSGISWNSGSIGYADSVKGRFTISRDNAKNSLYLQMNSLRAEDTALYYCAKYGSGYGKFYHYGLDVWGQGTTVTVSS VL: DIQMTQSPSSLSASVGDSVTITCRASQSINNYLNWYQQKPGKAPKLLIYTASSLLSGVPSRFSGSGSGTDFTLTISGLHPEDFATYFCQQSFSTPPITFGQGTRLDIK please.
Result: 1.76 pM
